// kon lookup, one value per entry
testSystem: T1, human IL-36γ, truncated (human, UniProt Q9NZH8 18-169)
T1 construct: Bought from R&D Systems (cat 6835-IL); also called human IL-36 gamma; hIL-36gamma
T1 sequence: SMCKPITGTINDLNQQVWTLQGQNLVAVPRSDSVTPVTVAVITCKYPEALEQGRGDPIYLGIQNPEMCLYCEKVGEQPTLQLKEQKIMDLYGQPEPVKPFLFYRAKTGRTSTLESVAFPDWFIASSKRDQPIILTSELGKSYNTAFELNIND
testDetails: SPR, Biacore T200, antibody on chip, IL-36 as analyte, 1:1 Langmuir fit
Enter your answer as a number in M⁻¹ s⁻¹; do not include the unit.

[[record]]
binder = "144L124B (antibody, V domains shown, Mouse monoclonal from hybridoma; mouse IgG heavy and lambda light chain; Same VH and VL as 144L180A) VH: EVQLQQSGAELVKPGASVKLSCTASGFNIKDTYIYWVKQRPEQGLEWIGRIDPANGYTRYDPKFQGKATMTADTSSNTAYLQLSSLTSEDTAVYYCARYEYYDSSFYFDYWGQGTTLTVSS VL: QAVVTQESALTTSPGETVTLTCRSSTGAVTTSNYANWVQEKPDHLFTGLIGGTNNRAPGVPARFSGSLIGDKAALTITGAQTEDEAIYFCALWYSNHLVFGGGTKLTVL"
obsvalue = 829000


Below: the item to evaluate.
stdin: I'd like to know its kon. The binder in question is m/h 144D666C (antibody, human IgG1, lambda, V domains shown, Mouse VH/VL joined to human IgG1 constant and human Ig lambda (IGLC2) constant; also called chimeric mouse/human 144D666C) VH: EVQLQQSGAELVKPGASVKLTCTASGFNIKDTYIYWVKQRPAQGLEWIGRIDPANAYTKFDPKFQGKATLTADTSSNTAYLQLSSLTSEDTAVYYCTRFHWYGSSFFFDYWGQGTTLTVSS VL: QAVVTQESALTTSPGETVTLTCRSSTGAVTTSNYANWVQEKPDHLFTGLIGGTDNRPPGVPARFSGSLIGDKAALTITGAQTEDEAIYFCALWYSNLWVFGGGTKLTVLG
stdout: 112000
